measurement target: Histone deacetylase 8 (Homo sapiens)
Sequence (Q9BY41 whole entry): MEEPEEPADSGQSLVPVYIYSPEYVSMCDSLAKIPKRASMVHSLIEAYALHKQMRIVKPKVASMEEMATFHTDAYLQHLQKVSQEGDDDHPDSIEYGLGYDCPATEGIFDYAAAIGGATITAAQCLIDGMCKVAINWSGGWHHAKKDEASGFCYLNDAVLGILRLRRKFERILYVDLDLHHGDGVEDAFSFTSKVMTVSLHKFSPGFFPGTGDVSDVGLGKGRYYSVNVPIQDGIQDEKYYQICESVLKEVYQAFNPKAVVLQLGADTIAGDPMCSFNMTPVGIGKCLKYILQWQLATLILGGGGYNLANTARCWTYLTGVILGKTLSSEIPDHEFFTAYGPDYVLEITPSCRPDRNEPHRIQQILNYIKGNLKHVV
recorded metric: pIC50
# pIC50: negative log10 of molar concentration; output just the value

Item O=C(NO)c1ccc(CN(Cc2ccccc2)C(=O)c2ccccc2)cc1 with Histone deacetylase 8 (Homo sapiens) - pIC50?
5.35

The measurements presented in this section are drawn from ChEMBL document CHEMBL5518175.
